Test system: TNK2
conditionDetails: concentration: 1 μM, replicates: in singlicate; n = 1;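 further: KINOMEscan kinase panel screen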
measuredProperty: %Inh (%)
Report the figure in % without appending any unit label.

[
  {
    "lineNotation": "COCCNC(=O)c1ccc(-c2cc(C(=O)NC3CC3)cc(F)c2C)cc1",
    "measuredProperty": "%Inh",
    "readoutValue": 16
  },
  {
    "lineNotation": "COc1ccc(S(=O)(=O)NC2CCN(c3cc(C)nc(Nc4cccc(C#N)c4)n3)CC2)cc1.O=C(O)C(F)(F)F",
    "measuredProperty": "%Inh",
    "readoutValue": 8
  }
]

What measured %Inh goes with Nc1nc(-c2ccc3c(N)n[nH]c3c2)cc(N2CCCC2)n1 ?
0

What measured %Inh goes with Cn1cc(-c2ccc3c(c2)CCN3C(=O)Cc2ccccc2Cl)c2c(N)ncnc21 ?
74

====

Test system: SRPK1
conditionDetails: concentration: 1 μM, replicates: in singlicate; n = 1
List of %Inh values.
Report the figure in % without appending any unit label.

Some molecules with known %Inh results, for comparison:
[
  {
    "molecule": "O=c1cc(N2CCOCC2)nc2n(Cc3cccc(Cl)c3Cl)c(C3CC3)nn12 [GSK2358994]",
    "%Inh [%]": 17
  },
  {
    "molecule": "CC(C)Oc1ccc2c(-c3ccnc(Nc4ccc(N5CCN(C)CC5)cc4)n3)cnn2n1 [GW696155]",
    "%Inh [%]": 85
  },
  {
    "molecule": "COc1ccc(S(=O)(=O)NC2CCN(c3cc(C)nc(Nc4cccc(C#N)c4)n3)CC2)cc1.O=C(O)C(F)(F)F [GSK1653539]",
    "%Inh [%]": 0
  },
  {
    "molecule": "Cc1nnc(-c2ccc3occ(-c4ccc(C(C)O)cc4)c3c2)o1 (stereo not drawn)",
    "%Inh [%]": 0
  },
  {
    "molecule": "COc1cc2c(cc1OC[C@@H](O)CO)ncc1c3ccc(C#N)cc3[nH]c21",
    "%Inh [%]": 0
  }
]

What measured %Inh goes with CN(C1=C(c2ccccc2)C(=O)NC1=O)c1ccccc1 [SB-334860] ?
10

What measured %Inh goes with CNc1ncnc2[nH]ncc12 [SKF-18355] ?
0

What measured %Inh goes with O=c1cc(N2CCOCC2)nc2n(Cc3cccc(C(F)(F)F)c3)ccn12 [GSK2297543] ?
24

What measured %Inh goes with NS(=O)(=O)c1cccc(-c2ccc3ncc(N4CCOCC4)nc3c2)c1 [GSK1535721] ?
0

====

List of %Inh values.
System: CLK2
conditionDetails: concentration: 1 μM, replicates: in singlicate; n = 1

Some molecules with known %Inh results, for comparison:
[
  {
    "molecule": "Fc1ccc(-c2ncn(CCCN3CCOCC3)c2-c2cccnc2)cc1",
    "measuredOn": "CLK2",
    "%Inh": "0%"
  },
  {
    "molecule": "O=C(Nc1cccc(-c2nn3ncccc3c2-c2ccnc(Nc3cccc(C(F)(F)F)c3)n2)c1)c1c(F)cccc1F",
    "measuredOn": "CLK2",
    "%Inh": "100%"
  },
  {
    "molecule": "COc1ccc(CNC(=O)NC2CCN(c3ccnc(Nc4ccc(OC)cc4)n3)C2)cc1 (centres unmarked)",
    "measuredOn": "CLK2",
    "%Inh": "0%"
  },
  {
    "molecule": "Cl.Cl.Cl.Fc1ccc(-c2ncn(C3CCNCC3)c2-c2ccnc(Nc3ccccc3)n2)cc1",
    "measuredOn": "CLK2",
    "%Inh": "0%"
  },
  {
    "molecule": "O=C(NCCNc1ccnc(Nc2ccc(F)cc2)n1)Nc1ccccc1F",
    "measuredOn": "CLK2",
    "%Inh": "0%"
  }
]

Identify the measured %Inh of Fc1ccc(-c2ncn(CCCN3CCOCC3)c2-c2ccccn2)cc1 for CLK2.
8%

Identify the measured %Inh of CC(C)(CN)c1nc(-c2ccc(Cl)c(O)c2)c(-c2ccncc2)[nH]1.O=C(O)C(F)(F)F for CLK2.
0%

Identify the measured %Inh of Cc1cccc(-c2nc(-c3ccc(S(C)(=O)=O)cc3)sc2-c2ccncc2)c1 for CLK2.
0%

Identify the measured %Inh of Nc1nccc(-c2c(-c3ccc(F)cc3)ncn2C2CCN(CC(F)(F)F)CC2)n1 for CLK2.
6%

Identify the measured %Inh of Cn1ccc2ncnc(Oc3ccc(NC(=O)Nc4ccncc4)c(Cl)c3)c21 for CLK2.
0%

Identify the measured %Inh of Cc1cccc(Cn2ccn3c(=O)cc(N4CCOCC4)nc23)c1 for CLK2.
20%

Identify the measured %Inh of O=c1cc(N2CCOCC2)nc2n(Cc3cccc(Cl)c3Cl)c(C3CC3)nn12 for CLK2.
25%

Identify the measured %Inh of Cc1cccc(-c2nc(Nc3ccc4ncsc4c3)c3ccccc3n2)n1 for CLK2.
9%
